What GGT Increase - Index Value was measured for each of the following?
# Test system: Hepatotoxicity
# ASSAY DETAILS: FDA HLAED, gamma-glutamyl transferase (GGT) increase
# CONDITIONS: human
I'd appreciate a reply containing only the number, no unit.

State its GGT Increase - Index Value on Hepatotoxicity: COc1cc2nc(N3CCN(C(=O)C4COc5ccccc5O4)CC3)nc(N)c2cc1OC (configuration not stated) [DOXAZOSIN]
0.2

What about O=C(O)COCCN1CCN(C(c2ccccc2)c2ccc(Cl)cc2)CC1 (configuration not stated) [CETIRIZINE] ?
0.6

What about CN1C(C(=O)Nc2ccccn2)=C(O)c2ccccc2S1(=O)=O [PIROXICAM] ?
0

What about CC1(C)S[C@@H]2[C@H](NC(=O)[C@H](NC(=O)N3CCN(S(C)(=O)=O)C3=O)c3ccccc3)C(=O)N2[C@H]1C(=O)O [MEZLOCILLIN] ?
0

What about C[C@@H]1C[C@H]2[C@H]3[C@H]([C@@H](O)C[C@]2(C)[C@@]1(O)C(=O)CO)[C@@]1(C)C=CC(=O)C=C1C[C@H]3Cl [ALCLOMETASONE] ?
0

What about CC(C)(O/N=C(\C(=O)N[C@@H]1C(=O)N2C(C(=O)[O-])=C(C[n+]3ccccc3)CS[C@H]12)c1csc(N)n1)C(=O)O [CEFTAZIDIME] ?
0

What about CCCCCCCCCC(=O)CC(=O)O[C@H]1CC[C@H]2[C@@H]3CCC4=CC(=O)CC[C@]4(C)[C@H]3CC[C@]12C [TESTOSTERONE KETOLAURATE] ?
4.8

* * *

# Tested on: Hepatotoxicity
# ASSAY DETAILS: FDA HLAED, serum glutamic pyruvic transaminase (SGPT) increase
# CONDITIONS: human
MEASURED QUANTITY: SGPT Increase - Activity Score

Before answering, review these 5 worked examples.
What value of SGPT Increase - Activity Score has been recorded for this entry: COc1ccc(CCN(C)CCCC(C#N)(c2ccc(OC)c(OC)c2)C(C)C)cc1OC (centres undefined)
Inactive

What about CCC(=O)O[C@H]1CC[C@H]2[C@@H]3CCC4=CC(=O)CC[C@]4(C)[C@H]3CC[C@]12C [TESTOSTERONE PROPIONATE] ?
Inactive

What about CC=CC1=C(C(=O)O)N2C(=O)[C@@H](NC(=O)[C@H](N)c3ccc(O)cc3)[C@H]2SC1 ?
Inactive

What about CC(C)NCC(O)COc1cccc2[nH]ccc12 (centres undefined) ?
Inactive

What about OC[C@H]1O[C@@H](n2cnc3c2NC=NC[C@H]3O)C[C@@H]1O ?
Inactive

New cases:
What value of SGPT Increase - Activity Score has been recorded for this entry: Nc1ccn(C[C@@H](CO)OCP(=O)(O)O)c(=O)n1.O.O
Inactive

What about CC(C)(C#N)c1cc(Cn2cncn2)cc(C(C)(C)C#N)c1 ?
Active

What about O=C(NCC1CCCCN1)c1cc(OCC(F)(F)F)ccc1OCC(F)(F)F (centres undefined) [FLECAINIDE] ?
Active

What about Cc1nnc2n1-c1ccc(Cl)cc1C(c1ccccc1Cl)=NC2 ?
Inactive

* * *

# System: Hepatotoxicity
# ASSAY DETAILS: FDA HLAED, liver enzyme composite activity
# CONDITIONS: human, Liver
MEASURED QUANTITY: Composite Activity - Marginal
I'd appreciate a reply containing only the number, no unit.

What value of Composite Activity - Marginal has been recorded for this entry: c1ccc([C@H]2CN3CCSC3=N2)cc1 [LEVAMISOLE]
0

What about Cc1cccc(Nc2ccccc2C(=O)O)c1C [MEFENAMIC ACID] ?
0

What about CN(C/C=C/c1ccccc1)Cc1cccc2ccccc12 [NAFTIFINE] ?
0

What about CCn1cc(C(=O)O)c(=O)c2cc(F)c(N3CCNCC3)cc21 [NORFLOXACIN] ?
2

What about CCCNCC(O)COc1ccccc1C(=O)CCc1ccccc1 (stereo unspecified) [PROPAFENONE] ?
0

What about Nc1c2c(nc3ccccc13)CCCC2 [TACRINE] ?
0

What about CCCCc1oc2ccccc2c1C(=O)c1cc(I)c(OCCN(CC)CC)c(I)c1 [AMIODARONE] ?
0

What about NCCNCCNCCN [TRIENTINE] ?
0

What about Cc1cccc(C)c1OCC(C)N (stereo unspecified) [MEXILETINE] ?
2

What about CC(C)NCC(O)COc1ccc(CC(N)=O)cc1 (stereo unspecified) [ATENOLOL] ?
0

What about CC(C)n1c(/C=C/C(O)CC(O)CC(=O)O)c(-c2ccc(F)cc2)c2ccccc21 (stereo unspecified) [FLUVASTATIN] ?
0
